systemUnderTest: cathepsin B (Homo sapiens, UniProt P07858)
methodSummary: Inhibition of cathepsin B, fluorogenic substrate Z-Arg-Arg-AMC
Assay type: biochemical
pKi: −log10 of the molar value.
measuredProperty: pKi

CCOP(=O)(CC[C@H](CCc1ccccc1)NC(=O)[C@H](Cc1ccccc1)NC(=O)N1CCOCC1)OCC: 4.77

* * *

systemUnderTest: cruzain (Trypanosoma cruzi)
Sequence (P25779 123-467): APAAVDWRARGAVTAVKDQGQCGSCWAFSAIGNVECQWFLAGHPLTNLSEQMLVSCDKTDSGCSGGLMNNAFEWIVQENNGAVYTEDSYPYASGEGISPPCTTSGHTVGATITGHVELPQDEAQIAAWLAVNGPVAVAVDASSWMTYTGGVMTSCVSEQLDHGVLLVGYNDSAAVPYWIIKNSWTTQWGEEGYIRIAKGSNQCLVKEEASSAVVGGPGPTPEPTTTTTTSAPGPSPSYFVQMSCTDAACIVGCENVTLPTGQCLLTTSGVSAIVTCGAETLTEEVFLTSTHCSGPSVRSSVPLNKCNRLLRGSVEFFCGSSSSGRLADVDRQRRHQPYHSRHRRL
methodSummary: Inhibition of cruzain (conditions as for cathepsin L)
Type: biochemical, T. cruzi
pKi: −log10 of the molar value.
Listed next: entries and their corresponding pKi.
measuredProperty: pKi

CCOP(=O)(CC[C@H](CCc1ccccc1)NC(=O)[C@H](Cc1ccccc1)NC(=O)N1CCOCC1)OCC [Mu--Phe--HphγPO(O2 Et)2]: 4.82
O=C(N[C@@H](CCc1ccccc1)CCS(=O)(=O)c1ccccc1)[C@H](Cc1ccc(O)cc1)NC(=O)N1CCOCC1 [Mu--Tyr--HphγSO2 Ph]: 4.70
